Exercise: for every item that follows, state its recorded PTN protein expression.
System: Panc-1 cells
Experimental Details: Protein expression using high content cell imaging system, and efficacy score; also: test concentration or dose not given here
Type: cell-based
Condition Details: 6 hours post treatment; control 1
Give bare numbers, in fluorescence units.

>>> print(df.to_string())
                                   compound            readout_kind  value_reported
0  CN1CC[C@@H](c2c(O)cc(O)c3c(=O)cc(-c4ccc(C(F)(F)F)cc4Cl)oc23)[C@@H]1CO.Cl (relative stereo) [P1446A]  PTN protein expression               3
1  CN1CC[C@@H](c2c(O)cc(O)c3c(=O)cc(-c4ccccc4Cl)oc23)[C@@H]1CO.Cl (relative stereo)  PTN protein expression               2
2  CN1CC[C@H](c2c(O)cc(O)c3c(=O)cc(-c4ccccc4Cl)oc23)[C@H](O)C1  PTN protein expression               1

Give me PTN protein expression for each of these compounds, listed below.
1. Nc1ccn([C@@H]2O[C@H](CO)[C@@H](O)C2(F)F)c(=O)n1
2. CC[C@H](CO)Nc1nc(NCc2ccccc2)c2ncn(C(C)C)c2n1

1. 6
2. 2

* * *

Exercise: for every item that follows, state its recorded COX15 protein expression.
System: Panc-1 cells
Experimental Details: Protein expression using high content cell imaging system, and efficacy score; also: test concentration or dose not given here
Assay type: cell-based
Condition Details: 36 hours post treatment; control 722
Numbers only, in fluorescence units.

# example entries with known answers
In [3]: df
Out[3]:
                                   compound  value_reported
0  CC[C@H](CO)Nc1nc(NCc2ccccc2)c2ncn(C(C)C)c2n1            1992
1  CN1CC[C@@H](c2c(O)cc(O)c3c(=O)cc(-c4ccccc4Cl)oc23)[C@@H]1CO.Cl (relative stereo)            1327
2  Nc1ccn([C@@H]2O[C@H](CO)[C@@H](O)C2(F)F)c(=O)n1            1990
3  CN1CC[C@@H](c2c(O)cc(O)c3c(=O)cc(-c4ccc(C(F)(F)F)cc4Cl)oc23)[C@@H]1CO.Cl (relative stereo) [P1446A]            1878

Reported COX15 protein expression for CN1CC[C@H](c2c(O)cc(O)c3c(=O)cc(-c4ccccc4Cl)oc23)[C@H](O)C1 was 1256

* * *

Test system: Panc-1 cell line
Experimental Details: Gene expression profile using RTQ-PCR
Format: cell-based
Condition Details: Panc1, RTQ-PCR
Readout Kind: PTK7 gene expression vs control cells with no drug treatment (log 2 fold ratio)
Numbers only, in log 2 fold ratio.

# example entries with known answers
>>> print(df.to_string())
                                   compound  unit_abbreviation  value_reported
0  CN1CCC(c2c(O)cc(O)c3c(=O)cc(-c4ccccc4Cl)oc23)C(O)C1 (stereo not shown) [drawing 5]   log 2 fold ratio            0.16
1  Nc1ccn([C@@H]2O[C@H](CO)[C@@H](O)C2(F)F)c(=O)n1 [drawing 1]   log 2 fold ratio           −0.53
2  CN1CC[C@@H](c2c(O)cc(O)c3c(=O)cc(-c4ccc(C(F)(F)F)cc4Cl)oc23)[C@@H]1CO.Cl [drawing 3]   log 2 fold ratio            0.30

Reported PTK7 gene expression vs control cells with no drug treatment for CC[C@H](CO)Nc1nc(NCc2ccccc2)c2ncn(C(C)C)c2n1 [drawing 2] was 0.11
